# GI50 per record follows
Test system: SK-MEL-28
Assay: NCI 60-cell line growth inhibition assay
Type: cell-based
Settings: Homo sapiens; Melanoma, SK-MEL-28
Reply with just the number (in nM).

Study these solved cases before continuing.
# COMPOUND, REPORTED_VALUE
data = [
    ("CC[C@H](CO)Nc1nc(NCc2ccc(-c3ccccn3)cc2)c2ncn(C(C)C)c2n1 [Compound 17]", 120),
    ("CC[C@H](CO)Nc1nc(NCc2ccc(-c3cccc(C(F)(F)F)c3)cc2)c2ncn(C(C)C)c2n1 [Compound 38]", 30),
    ("CC[C@H](CO)Nc1nc(NCc2ccc(-c3ccccc3)cc2)c2ncn(C(C)C)c2n1 [Compound 73]", 450),
]

// next entry
Field GI50 (entry C=Cc1ccc(-c2ccc(CNc3nc(N[C@H](CC)CO)nc4c3ncn4C(C)C)cc2)cc1 [Compound 33] ) reads 5900

###

Biological target: CyclinE/cdk2 (Homo sapiens)
Experiment: CyclinE/cdk2 protein kinase assay (histone H1 phosphorylation)
Details: IC50 CyclinE/cdk2, complex immunopurified from HeLa cells; 15 μM ATP; replicate experiments
Label key: 1 means IC50 under 1000 nM; 0 means IC50 of 1000 nM or more.

Answered cases to consult:
# MOLECULE, ASSIGNED_CATEGORY
measured = [
    ("CC(C)n1cnc2c(NCc3ccc(-c4ccsc4)nc3)nc(N[C@H]3CC[C@H](N)CC3)nc21", 1),
    ("CC(=O)N[C@H]1CC[C@H](Nc2nc(NCc3ccc(-c4ccc(F)cc4)cc3)c3ncn(C(C)C)c3n2)CC1", 0),
    ("CC(C)n1cnc2c(NCc3ccc(-c4ccccc4)cc3)nc(N[C@H]3CC[C@H](N)CC3)nc21", 0),
    ("CC(=O)N[C@H]1CC[C@H](Nc2nc(NCc3ccc(-c4ccc(C)cc4)cc3)c3ncn(C(C)C)c3n2)CC1", 0),
    ("CC(C)n1cnc2c(NCc3cccnc3)nc(N[C@@H]3CCCC[C@@H]3N)nc21 [Compound 126, reference compound]", 1),
    ("CC(=O)N[C@H]1CC[C@H](Nc2nc(NCc3ccc(-c4ccc(C(=O)O)cc4)cc3)c3ncn(C(C)C)c3n2)CC1", 0),
]

Criterion: IC50 strictly below 1000 nM. Is it met by `CC(C)n1cnc2c(NCc3ccc(-c4ccc(C(=O)O)cc4)cc3)nc(N[C@H]3CC[C@H](N)CC3)nc21` ?
1

Decide: IC50 of `CC(=O)N[C@H]1CC[C@H](Nc2nc(NCc3ccc(-c4ccsc4)nc3)c3ncn(C(C)C)c3n2)CC1` strictly below 1000 nM?
1

Just wondering, is IC50 of `CC(=O)N[C@H]1CC[C@H](Nc2nc(NCc3ccc(-c4ccsc4)cc3)c3ncn(C(C)C)c3n2)CC1` below 1000 nM?
1

# strict comparison: is reported IC50 < 1000 nM? input = `CC(C)n1cnc2c(NCc3ccc(-c4cccc(Cl)c4)cc3)nc(N[C@H]3CC[C@H](N)CC3)nc21`
1

Is 1000 nM strictly greater than the molecule's reported IC50? molecule: `COC(=O)c1ccc(-c2ccc(CNc3nc(N[C@H]4CC[C@H](NC(C)=O)CC4)nc4c3ncn4C(C)C)cc2)cc1`
0

API: query returns whether the molecule falls strictly under 1000 nM in IC50. Query: `CC(=O)N[C@@H](C)CNc1nc(NCc2ccc(-c3ccccc3)cc2)c2ncn(C(C)C)c2n1`
0

Hello, is IC50 of the following molecule strictly smaller than 1000 nM? `CC(=O)N[C@H]1CC[C@H](Nc2nc(NCc3ccc(-c4cccs4)cc3)c3ncn(C(C)C)c3n2)CC1`
0
